# TARGET DESC: HLA-A2 (Homo sapiens, UniProt P04439, D140Y/D185E/D98H/E176V/E277Q/G131W/G231S/I119V/I121R/I166T/I218V/L300P/L318F/N151K/N90K/P208A/P217A/Q86G/Q94H/R138H/R169H/T345S)
# ASSAY NAME: HLA-A2 peptide binding assay on T2 cells (fluorescence index, flow cytometry)
# CONDITION DESCRIPTION: summary of Tables 2 and 3
RESULT TYPE: upregulation of HLA-A2 expression (in words)

>>> print(df.to_string())
                           residue_sequence         value_reported
0  GLVEPVNMV (Filamin-B peptides) [Filamin B peptide # 2, 9-mer peptide selected from the filamin-B polypeptide]  moderate upregulation
1  GLAPLEVRV (Filamin-B peptides) [Filamin B peptide # 3, 9-mer peptide selected from the filamin-B polypeptide]  greatest upregulation
2  SLQESGLKV (Filamin-B peptides) [Filamin B peptide # 4, 9-mer peptide selected from the filamin-B polypeptide]  moderate upregulation
3  RLIALLEVL (Filamin-B peptides) [Filamin B peptide # 5, 9-mer peptide selected from the filamin-B polypeptide]  greatest upregulation
4  GQGDVMVFV (Filamin-B peptides) [Filamin B peptide # 6, 9-mer peptide selected from the filamin-B polypeptide]  moderate upregulation

## Input Given LILGLVWTL (Filamin-B peptides) [Filamin B peptide # 1, 9-mer peptide selected from the filamin-B polypeptide] , state its recorded upregulation of HLA-A2 expression (in words).
## Output greatest upregulation
